pKd: −log10 of the molar value.
// each record: one item and its pKd for TYK2 (Homo sapiens)

Measured pKd, Cc1cc(Nc2nc(C(O)c3ccc(F)cc3)nc3cc(C(C)(C)C)sc23)n[nH]1 (stereo not shown) : < 7.00

Measured pKd, `Cc1cc(Nc2nc(C(=O)c3ccc(F)cc3)nc3cc(C)sc23)n[nH]1` : 7.00 to 8.00

Measured pKd, Cc1cc(Nc2nc(C(O)c3ccc(F)cc3)nc3sccc23)n[nH]1 (racemic) : ≥ 8.00

Kindly review the next compound as well.
Measured pKd, `Cc1cc(Nc2nc(C(F)(F)c3ccc(F)cc3)nc3sc(C)cc23)n[nH]1` : ≥ 8.00
